Source of measurements: ChEMBL document CHEMBL4616677

- test protocol: Clearance in ICR mouse at 5 mg/kg, po by LC-MS/MS analysis
- Format: ADME, organism-based
- condition label: in vivo

compound smiles: O=C(N[C@H]1C[C@H](c2nnc(-c3ccccn3)n2-c2ccccc2F)C1)c1ccnc2cc(F)cnc12
CL/F (mL/min/kg): 16.5

compound smiles: CCOc1ccc(-c2nnc([C@H]3C[C@H](NC(=O)c4ccccn4)C3)n2-c2ccccc2F)nc1
CL/F (mL/min/kg): 34.8

compound smiles: CS(=O)(=O)c1ccc(-c2nnc([C@H]3C[C@H](NC(=O)c4cccc5cccnc45)C3)n2-c2ccccc2F)nc1
CL/F (mL/min/kg): 28.2
